System: Salmonella typhimurium Ames mutagenicity, literature compiled
Experiment: DSSTox (CPDBAS) Carcinogenic Potency Database Salmonella Mutagenicity
The source made the active and inactive calls.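 Rule for the calls: active = chemicals rated mutagenic or weakly mutagenic in the Salmonella bacterial test by one literature review, or positive overall by another; inconclusive = no clear call, values can overlap the other calls; inactive = the rest.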
Outcome codes: TRUE for active, FALSE for inactive

>>> category_label("C/C=C/C=C/C(=O)O")
"FALSE"
>>> category_label("CCCC[C@H](C)[C@@H](OC(=O)C[C@H](CC(=O)O)C(=O)O)[C@@H](C[C@H](C)C[C@@H](O)CCCC[C@@H](O)C[C@H](O)[C@H](C)N)OC(=O)C[C@H](CC(=O)O)C(=O)O")
"FALSE"
>>> category_label("CN(C#N)N=O")
"TRUE"
>>> category_label("CC(O)CCl (stereo not drawn)")
"TRUE"
>>> category_label("NC(=O)Cc1cccc2ccccc12")
"TRUE"
>>> category_label("CC(C)CCC[C@@H](C)[C@H]1CC[C@H]2[C@@H]3CC=C4C[C@@H](OC(=O)Cc5ccc(N(CCCl)CCCl)cc5)CC[C@]4(C)[C@H]3CC[C@]12C")
"FALSE"
>>> category_label("COS(C)(=O)=O")
"TRUE"
>>> category_label("Nc1ccc(N=Nc2ccc(-c3ccc(N=Nc4c(S(=O)(=O)O)cc5cc(S(=O)(=O)O)c(N=Nc6ccccc6)c(O)c5c4N)cc3)cc2)c(N)c1")
"TRUE"
>>> category_label("ClC1(Cl)C2(Cl)C3(Cl)C4(Cl)C(Cl)(Cl)C5(Cl)C3(Cl)C1(Cl)C5(Cl)C24Cl (stereo not drawn)")
"FALSE"
>>> category_label("FC(Cl)(Cl)Cl")
"FALSE"
>>> category_label("COc1cccc2c1cc([N+](=O)[O-])c1c(C(=O)O)cc3c(c12)OCO3")
"TRUE"
>>> category_label("OCC(O)CCl (stereo not drawn)")
"TRUE"
>>> category_label("c1ccc2occc2c1")
"FALSE"
>>> category_label("Oc1ccccc1O")
"FALSE"
>>> category_label("[Cd+2].[Cl-].[Cl-]")
"FALSE"
>>> category_label("Cc1ccc(S(=O)(=O)NC(=O)NN2CCCCCC2)cc1")
"FALSE"
>>> category_label("Cc1ccccc1S(N)(=O)=O")
"FALSE"
>>> category_label("COP(=S)(OC)SCn1nnc2ccccc2c1=O")
"TRUE"
>>> category_label("CCN(N=O)C(N)=O")
"TRUE"
>>> category_label("CC1CO1 (stereo not drawn)")
"TRUE"
>>> category_label("OCCO")
"FALSE"
>>> category_label("CCCCCCCCCCCCN(C)N=O")
"TRUE"
>>> category_label("NCCc1ccc(O)c(O)c1")
"TRUE"
>>> category_label("OCCN(CCO)c1nc(-c2cccs2)nc2ccccc12")
"FALSE"
>>> category_label("Oc1cccc2cccnc12")
"TRUE"
>>> category_label("ClC(Br)Br")
"FALSE"
>>> category_label("CN=[N+](C)[O-]")
"TRUE"
>>> category_label("CC/C(=C(/CC)c1ccc(O)cc1)c1ccc(O)cc1")
"FALSE"
>>> category_label("CCCCN(N=O)C(N)=O")
"TRUE"
>>> category_label("CN(N=O)c1ccncc1")
"FALSE"
>>> category_label("O.O.O.O.O.O.O=S(=O)([O-])[O-].[Ni+2]")
"FALSE"
>>> category_label("Cc1cc(Cl)ccc1N")
"FALSE"
>>> category_label("CCC1CO1 (stereo not drawn)")
"TRUE"
>>> category_label("C[C@]12CC[C@@H]3c4ccc(O)cc4CC[C@H]3[C@@H]1CC[C@@H]2O")
"FALSE"
>>> category_label("CN(C)CCOC(C)(c1ccccc1)c1ccccn1 (stereo not drawn)")
"FALSE"
>>> category_label("FC(F)OC(Cl)C(F)(F)F (stereo not drawn)")
"FALSE"
>>> category_label("O=[N+]([O-])c1ccc(-c2nc(N(CCO)CCO)c3ccccc3n2)s1")
"FALSE"
>>> category_label("O=c1cc(CO)occ1O")
"TRUE"
>>> category_label("Cc1cc(-c2ccc(N)c(C)c2)ccc1N")
"TRUE"
>>> category_label("NC(=S)Nc1ccccc1")
"FALSE"
>>> category_label("c1ccc(Nc2ccc3ccccc3c2)cc1")
"FALSE"
>>> category_label("OC[P+](CO)(CO)CO")
"FALSE"
>>> category_label("Cc1cc(C)c(N=Nc2c(O)c(S(=O)(=O)O)cc3cc(S(=O)(=O)O)ccc23)cc1C")
"FALSE"
>>> category_label("BrCCBr")
"TRUE"
>>> category_label("C=O")
"TRUE"
>>> category_label("CCCCCC")
"FALSE"
>>> category_label("CCc1ccccc1")
"FALSE"
>>> category_label("CCC(O)OC(O)CC (stereo not drawn)")
"FALSE"
>>> category_label("CCN(CC)C(=S)S[Te](SC(=S)N(CC)CC)(SC(=S)N(CC)CC)SC(=S)N(CC)CC")
"FALSE"
>>> category_label("Cc1ccc(N)cc1Cl")
"FALSE"
>>> category_label("Nc1ccccc1-c1ccccc1")
"TRUE"
>>> category_label("Nc1ccc(N)c2c1C(=O)c1c(N)ccc(N)c1C2=O")
"TRUE"
>>> category_label("O=NN1CCOCC1")
"TRUE"
>>> category_label("ClC(Cl)C(Cl)(Cl)Cl")
"FALSE"
>>> category_label("O=S(=O)(O)c1ccc2c(N=Nc3ccc(S(=O)(=O)O)c4ccccc34)c(O)c(S(=O)(=O)O)cc2c1")
"FALSE"
>>> category_label("CCCCC(CC)COC(=O)COc1ccc(Cl)cc1Cl (stereo not drawn)")
"FALSE"
>>> category_label("O=S1OCC2C(CO1)C1(Cl)C(Cl)=C(Cl)C2(Cl)C1(Cl)Cl (stereo not drawn)")
"FALSE"
>>> category_label("CS(=O)(=O)OCCCCOS(C)(=O)=O")
"TRUE"

---

System: Salmonella typhimurium Ames mutagenicity, literature compiled
Test: DSSTox (CPDBAS) Carcinogenic Potency Database Salmonella Mutagenicity
Active and inactive are the calls of the source.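 How the source made its calls: active means chemicals rated mutagenic or weakly mutagenic in the Salmonella bacterial test by one literature review, or positive overall by another; inconclusive means no clear call, values can overlap the other calls; inactive means the rest.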
Outcome codes: active, inactive

>>> category_label("CCNc1nc(Cl)nc(NC(C)C)n1")
"inactive"
>>> category_label("COc1cc2c(c3oc(=O)c4c(c13)CCC4=O)C1C=COC1O2 (centres undefined)")
"active"
>>> category_label("Nc1ncc([N+](=O)[O-])s1")
"active"
>>> category_label("Nc1ncn[nH]1")
"inactive"
>>> category_label("O=C1C=CC(=O)C=C1")
"inactive"
>>> category_label("CCOC(=O)C1OC1(C)c1ccccc1 (centres undefined)")
"inactive"
>>> category_label("CN(C)c1ccc(Cc2ccc(N(C)C)cc2)cc1")
"active"
>>> category_label("O=[N+]([O-])c1cc([As](=O)(O)O)ccc1O")
"inactive"
>>> category_label("O=[O+][O-]")
"active"
>>> category_label("CC(C)[N+](=O)[O-]")
"active"
>>> category_label("CC(=O)O[C@@H]1[C@@H](O)C2OC3C=C(C)C(=O)C(O)[C@@]3(CO)[C@]1(C)[C@]21CO1 (some centres undefined)")
"inactive"
>>> category_label("c1ccc2c(c1)Nc1ccccc1S2")
"inactive"
>>> category_label("OCl")
"inactive"
>>> category_label("Nc1ccc(S(=O)(=O)c2ccc(N)cc2)cc1")
"inactive"

---

System: Salmonella typhimurium Ames mutagenicity, literature compiled
Assay: DSSTox (CPDBAS) Carcinogenic Potency Database Salmonella Mutagenicity
The source made the active and inactive calls.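 Rule for the calls: active = chemicals rated mutagenic or weakly mutagenic in the Salmonella bacterial test by one literature review, or positive overall by another; inconclusive = no clear call, values can overlap the other calls; inactive = the rest.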
Outcome codes: active, inactive

>>> category_label("CCOC(=O)CC(SP(=O)(OC)OC)C(=O)OCC (configuration not stated)")
"inactive"
>>> category_label("CCCCCc1cc(O)c2c(c1)OC(C)(C)[C@@H]1CCC(C)=C[C@@H]21")
"inactive"
>>> category_label("CC1(C)S[C@@H]2[C@H](NC(=O)[C@H](N)c3ccccc3)C(=O)N2[C@H]1C(=O)O")
"inactive"
>>> category_label("CC(N)=O")
"inactive"
>>> category_label("Cc1ncc([N+](=O)[O-])n1C")
"active"
>>> category_label("Nc1ccc2ccccc2c1")
"active"
>>> category_label("CCC1(c2ccccc2)C(=O)N=C(O)NC1=O (configuration not stated)")
"inactive"
>>> category_label("[C-]1=CC=CC1.[C-]1=CC=CC1.[Cl-].[Cl-].[Ti+4]")
"active"
>>> category_label("O=NN1CCCCCCC1")
"active"
>>> category_label("CN(C)C(=O)Nc1ccc(Cl)cc1")
"inactive"
>>> category_label("c1ccc(N=Nc2ccccc2)cc1")
"active"
>>> category_label("Nc1ccc2c(n1)[nH]c1ccccc12")
"active"
>>> category_label("O=C1C2(Cl)C3(Cl)C4(Cl)C(Cl)(Cl)C5(Cl)C3(Cl)C1(Cl)C5(Cl)C24Cl (configuration not stated)")
"inactive"
>>> category_label("CCC[CH2][Sn]([CH2]CCC)([CH2]CCC)[O][Sn]([CH2]CCC)([CH2]CCC)[CH2]CCC")
"inactive"
>>> category_label("O=[N+]([O-])c1ccc(-c2nc(NCCO)c3ccccc3n2)s1")
"active"
>>> category_label("ClC1=C(Cl)[C@]2(Cl)[C@@H]3[C@@H]4C[C@@H]([C@H]5O[C@@H]45)[C@@H]3[C@@]1(Cl)C2(Cl)Cl")
"inactive"
>>> category_label("N#Cc1c(Cl)c(Cl)c(Cl)c(C#N)c1Cl")
"inactive"
>>> category_label("O.O.O.O.O.O.O.O=S(=O)([O-])[O-].[Co+2]")
"active"
>>> category_label("Clc1ccc(Cl)cc1")
"inactive"
>>> category_label("CC(C)O")
"inactive"
>>> category_label("CC1CN(N=O)CC(C)N1C(=O)c1ccccc1 (configuration not stated)")
"inactive"
>>> category_label("CC1CN(N=O)CC(C)O1 (configuration not stated)")
"active"
>>> category_label("COc1ccc(C(Cl)=C(c2ccc(OC)cc2)c2ccc(OC)cc2)cc1")
"inactive"
>>> category_label("Clc1ccc(C(c2ccccc2Cl)C(Cl)Cl)cc1 (configuration not stated)")
"inactive"
>>> category_label("CCN(C)N=O")
"active"
>>> category_label("O=NO")
"active"
>>> category_label("CN(C)CCN(Cc1cccs1)c1ccccn1")
"inactive"
